meta.source: patent US20070010671A1

# target_entity: MCH receptor (Homo sapiens)
# experiment_notes: High throughput functional screening FLIPR/FDSS6000: inhibition of MCH-evoked intracellular Ca2+ changes
# Format: cell-based
# run_parameters: class by percent of control at 10^−7 M or by IC50; read-out: class
Provide the reported IC50 of each item.

Return reported IC50; argument: `CN(C)c1nc(N[C@H]2CC[C@@H](C(=O)NCc3ccc(F)c(F)c3F)CC2)nc2ccccc12` < 50 nM

Return reported IC50; argument: `COc1cc(OC)cc(Oc2ncccc2C(=O)N[C@H]2CC[C@@H](Nc3nc(N(C)C)c4ccccc4n3)CC2)c1` < 50 nM

Return reported IC50; argument: `COc1cc(CNC(=O)[C@H]2CC[C@@H](Nc3nc(N(C)C)c4cc(F)c(F)cc4n3)CC2)cc(OC)c1` 50 to 200 nM

Return reported IC50; argument: CN(C)c1nc(N[C@H]2CC[C@@H](NC(=O)C(O)c3ccc(F)c(F)c3)CC2)nc2ccccc12 (relative stereo) 50 to 200 nM

Return reported IC50; argument: `CN(C)c1nc(N[C@H]2CC[C@@H](NC(=O)c3cccnc3Oc3ccc(F)c(Cl)c3)CC2)nc2ccccc12` < 50 nM

Return reported IC50; argument: `C[C@@H](NC(=O)[C@H]1CC[C@@H](Nc2nc(N(C)C)c3ccccc3n2)CC1)c1ccccc1` < 50 nM

Return reported IC50; argument: `CN(C)c1nc(N[C@H]2CC[C@@H](C(=O)NCc3ccc(Cl)cc3)CC2)nc2ccccc12` < 50 nM
